# Tested on: human normal cervical epithelial cells (HcerEpic)
# procedureSummary: Toxicity in normal cervical epithelial cells
# Format: cell-based
# assaySetup: Epithelial cell, read-out: IC50, HcerEpic
reportedProperty: IC50

Entry under review: O=C(CCCCCCNC(=O)c1cnc(N(c2ccccc2)c2ccccc2)nc1)NO . Reported IC50?
> 50 µM

====

# procedureSummary: Microsomal stability assay
# Format: in vitro ADME
# assaySetup: human, human liver microsomes, pH 7.4
reportedProperty: half-life at 0.5 µM (min)
One number for each entry, in min.

Consider the molecule shown here: O=C(CCCCCCNC(=O)c1cnc(N(c2ccccc2)c2ccccc2)nc1)NO [ACY1215] What is its recorded half-life at 0.5 µM?
402
